normalized growth values for the compounds below.
# EXPERIMENTAL_DETAILS: chemical genetic growth profiling, strain panel (AID 1159580);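 also: tested at 20 µM; growth read once vehicle control cultures reached saturation at 30 °C; 1 = growth at the plate median or of vehicle wells; lower values mean less growth of the strain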
# ASSAY_CONDITIONS: S. cerevisiae deletion strains, growth OD, locus YKR001C, strain vps1, active compounds read low
Among all 5,500 compounds or so, about 2,000 (36%) were called active. About 18% were inconclusive and are not listed. Some of the results follow.
Please give only the number in your answer, with no unit.

COMPOUND	normalized growth
CC(=O)Oc1cccc(C(=O)O)c1OC(C)=O	1.01
CC1=C(O)C(=O)C=C2C1=CC=C1[C@@]2(C)CC[C@@]2(C)[C@@H]3C[C@](C)(C(=O)O)CC[C@]3(C)CC[C@]12C	0.13
CC(=O)O[C@H]1CC[C@]2(C)C3CC[C@@]4(C)C(CC5O[C@@]6(CCC(C)CO6)[C@@H](C)C54)C3CC[C@@H]2C1 (stereo partly drawn)	0.998
CN1CCN(CCC=C2c3ccccc3Sc3ccc(S(=O)(=O)N(C)C)cc32)CC1	0.916
O=C(O)[C@H](O)[C@@](O)(Cc1ccc(O)cc1)C(=O)O	1.02

Request: Answer with the recorded normalized growth for the compound listed here: CC(=O)O[C@@H]1CC[C@]2(C)C3CC[C@]4(C)C(=O)CCC4C3CC[C@H]2C1 (stereo partly drawn)
Response: 0.984

Request: Answer with the recorded normalized growth for the compound listed here: `COc1cc(/C=C/C=O)cc(OC)c1OC`
Response: 1.07

Request: Answer with the recorded normalized growth for the compound listed here: `CCC1(CC)C(=O)C=CNC1=O`
Response: 0.983
